Field: melting point. Provide a value for each of the compounds that follow.

1. CC(=O)O[C@H]1CC[C@]2(C)[C@H]3CC=C4[C@@H]5CC(C)(C)CC[C@]5(COC(=O)CCC(=O)Nc5nnc(S(N)(=O)=O)s5)CC[C@@]4(C)[C@]3(C)CC[C@H]2C1(C)C [Compound 18]: 198 to 200 °C
2. CC(=O)O[C@H]1CC[C@]2(C)[C@H]3CC=C4[C@@H]5[C@@H](C)[C@H](C)CC[C@]5(COC(=O)CCC(=O)Nc5nnc(S(N)(=O)=O)s5)CC[C@@]4(C)[C@]3(C)CC[C@H]2C1(C)C [Compound 19]: 190 to 192 °C
3. C=C(C)[C@@H]1CC[C@]2(COC(=O)CCC(=O)O)CC[C@]3(C)[C@H](CC[C@@H]4[C@@]5(C)CC[C@H](OC(C)=O)C(C)(C)[C@@H]5CC[C@]43C)[C@@H]12 [Compound 3]: 189 to 191 °C

// next item, melting point requested
Req: For the compound shown here, CC(=O)O[C@H]1CC[C@]2(C)[C@H]3C(=O)C=C4[C@@H]5C[C@@](C)(COC(=O)CCC(=O)Nc6nnc(S(N)(=O)=O)s6)CC[C@]5(C)CC[C@@]4(C)[C@]3(C)CC[C@H]2C1(C)C [Compound 20] , give the reported melting point.
Resp: 179 to 181 °C

---

- assayedTarget: Carbonic anhydrase II (bCA II) (Bos taurus, UniProt P00921)
- Sequence (P00921 whole entry): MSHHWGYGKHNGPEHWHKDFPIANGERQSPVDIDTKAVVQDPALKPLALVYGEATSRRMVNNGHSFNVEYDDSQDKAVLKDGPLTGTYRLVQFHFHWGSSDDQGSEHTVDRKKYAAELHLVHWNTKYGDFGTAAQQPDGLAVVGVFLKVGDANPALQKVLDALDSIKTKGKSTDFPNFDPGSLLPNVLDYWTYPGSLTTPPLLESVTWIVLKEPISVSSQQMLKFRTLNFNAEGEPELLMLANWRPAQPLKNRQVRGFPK
- protocol: CA II inhibition assay (4-nitrophenyl acetate hydrolysis)
- Assay type: biochemical, bovine
- experimentalSetup: CA II; Dixon plot; read-out: Ki
- Method: For the CA II assay: Carbonic anhydrase II (bCA II, ≥3000 W-A units/mg from bovine erythrocytes) as well as 4-nitrophenyl acetate (4-NA) were purchased from Sigma. The substrate (25 µL, [4-NA] = 0.75 mM, 0.50 mM, 0.25 mM, 0.15 mM) was added to start the enzymatic reaction. […] The relative inhibition was determined as the quotient of the slopes (compound divided by blank) of the linear ranges.
property: pKi
Numbers only, as −log10 of the molar value.

Req: For the compound shown here, CC(=O)O[C@H]1CC[C@]2(C)[C@H]3CC=C4[C@@H]5[C@@H](C)[C@H](C)CC[C@]5(COC(=O)CCC(=O)Nc5nnc(S(N)(=O)=O)s5)CC[C@@]4(C)[C@]3(C)CC[C@H]2C1(C)C , give the reported pKi.
Resp: 6.04
